Where these numbers come from: ChEMBL document CHEMBL1201862

# Test system: DU-145
# assay.comment: NCI tumour cell line growth inhibition, 48 h
Active and inactive are the calls of the source. No stated cut-off is given here; in the data, active = GI50 up to about 1.1 µM and inactive = higher.
experimental.endpoint: GI50

Example results:
compound	experimental.endpoint	value.observed
COc1ccccc1NC(=O)C1=C(C)NC(C)=C(C(=O)Nc2ccccc2OC)C1c1ccco1	GI50	21.4 µM (inactive)
COc1ccc2c(C)cc(N/N=C/c3sccc3C)nc2c1	GI50	6.68 µM (inactive)
CN(C)/C=C/c1ccncc1	GI50	> 100 µM (inactive)
Clc1nc(-c2ccccc2)nc(Cl)c1Cl	GI50	15.8 µM (inactive)
N#CC(=N)c1ncn(-c2ccc(N)cc2)c1N	GI50	> 100 µM (inactive)

Look up GI50 with DU-145 for this compound: N#Cc1cnc(N)nc1NCC1(CO)CC(CCc2ccccc2)C1 (stereo unspecified)
> 100 µM (inactive)

----------
# Test system: TK-10
# assay.comment: NCI tumour cell line growth inhibition, 48 h
Calls of active or inactive are those of the source. No stated cut-off is given here; in the data, active = GI50 up to about 1.1 µM and inactive = higher.
GI50 listing for selected molecules.

Example results:
molecule	tgt	GI50
NC(CCC(=O)c1ccccn1)C(=O)O (centres undefined)	TK-10	> 100 µM (inactive)
CC1=C(C(N)=O)C(c2ccncc2)C(C#N)C(=O)N1 (centres undefined)	TK-10	> 100 µM (inactive)
COc1ccc(/C=C2\CN(C)CC3=C2OC(N)=C(C#N)C3c2ccc(OC)cc2)cc1 (centres undefined)	TK-10	> 84.5 µM (inactive)

Could you tell me which GI50 is on file for CCOC(=O)c1c(NC(=O)c2ccccc2)sc2c1CCCC2 ?
> 100 µM (inactive)

----------
# System: U-251
# assay.comment: NCI tumour cell line growth inhibition, 48 h
Activity calls are given as the source filed them. Rule as the data show it: active = GI50 up to about 1.1 µM and inactive = higher.
experimental.endpoint: GI50

Example results:
compound	GI50
CC(C)C1CC(CO)(CNc2nc(N)nc(Cl)c2/C=N\O)C1 (centres undefined)	14.5 µM (inactive)
Cn1c(COC(=O)Nc2ccccc2)c(COC(=O)Nc2ccccc2)c2ccc3cc(Cl)c(Cl)cc3c21	1.95 µM (inactive)
O=C(Nc1ccc(Cl)cc1)NS(=O)(=O)c1c(-c2ccccc2)oc2ccccc2c1=O	58.2 µM (inactive)

Could you tell me which GI50 is on file for C=CCN1C(=O)/C(=C/c2ccccc2)N=C1SC/C=C/C ?
48.1 µM (inactive)

Could you tell me which GI50 is on file for Cc1nc2c(Br)cc(Br)cc2c(=O)n1-c1ccccc1NC1OC(CO)C(O)C(O)C1O (centres undefined) ?
> 100 µM (inactive)

----------
# Test system: OVCAR-5
# assay.comment: NCI tumour cell line growth inhibition, 48 h
Activity calls are given as the source filed them. No stated cut-off is given here; in the data, active = GI50 up to about 1.1 µM and inactive = higher.
GI50 listing for selected compounds.

Could you tell me which GI50 is on file for COC(=O)C(Cc1ccccc1)NP(=O)(O)OCC1OC(n2cc(Br)c(=O)[nH]c2=O)CC1O (centres undefined) ?
> 100 µM (inactive)

Could you tell me which GI50 is on file for CCOc1ccc2c(c1)C(/C(C(Cl)=C(Cl)Cl)=[N+](/[O-])OC(=O)c1ccccc1)=N2 ?
76.4 µM (inactive)

Could you tell me which GI50 is on file for Cc1ccc(NC(S)=Nc2c(C)n(C)n(-c3ccccc3)c2=O)cc1 ?
> 100 µM (inactive)

Could you tell me which GI50 is on file for Cc1cc(C)c([S@@](=O)O[C@@H]2[C@H]3OC(C)(C)O[C@H]3O[C@@H]2[C@H]2COC(C)(C)O2)c(C)c1 ?
29.2 µM (inactive)

Could you tell me which GI50 is on file for COc1cc(-c2cc(=O)c3c(OC)c(OC)c(OC)c(OC)c3o2)cc(OC)c1OC [HEPATAMETHOXYFLAVONE] ?
> 100 µM (inactive)

Could you tell me which GI50 is on file for CCOC(=O)[C@@H]1C[C@@H]1c1ccc(O)c(O)c1 ?
> 100 µM (inactive)

Could you tell me which GI50 is on file for N#CCC(=O)Nc1ccccc1O ?
> 100 µM (inactive)

Could you tell me which GI50 is on file for COc1ccc(CCNC(=O)CCCCCO)cc1OC ?
> 100 µM (inactive)

Could you tell me which GI50 is on file for O=C1CCC2(c3ccccc3)Nc3ccncc3N12 (centres undefined) ?
> 10 µM (inactive)

Could you tell me which GI50 is on file for CC(C)N(/C(F)=N\C(=O)Nc1ccccc1C(F)(F)F)C(C)C ?
> 100 µM (inactive)

Could you tell me which GI50 is on file for O=C1NC2(NC(=O)C1=O)Nc1ccccc1S2 ?
> 100 µM (inactive)

Could you tell me which GI50 is on file for CO[C@@H](c1ccccc1)[C@H](O)[C@@](O)(c1ccccc1)P(=O)(OC)OC ?
> 100 µM (inactive)
